compounds and their reported GI50
test system: EKVX; assay: NCI tumour cell line growth inhibition, 48 h
Active and inactive are the calls of the source. Rule as the data show it: active = GI50 up to about 1.1 µM and inactive = higher.
test_readout: GI50

INSERT INTO measurements (compound, reported_value) VALUES
  ('Cn1c(=S)[nH]c(N)c(Cc2ccccc2)c1=O', '92.5 µM (inactive)'),
  ('COC(=O)/C=C\n1ncc(=O)[nH]c1=O', '> 100 µM (inactive)'),
  ('COC1/C=C\C=C(/C)C(=O)Nc2cc3nc4ccc(Br)cc4oc-3c(c2=O)CC(C)CC(OC)C(O)C(C)/C=C(\C)C1OC(N)=O (configuration not stated)', '3.17 µM (inactive)'),
  ('COc1ccc(Nc2nc3ccc(C(F)(F)F)cc3nc2-c2ccccc2)cc1OC', '20.7 µM (inactive)'),
  ('O=C1c2ccccc2-c2ccc(NC(=O)C3CCCCC3C(=O)O)cc21 (configuration not stated)', '> 100 µM (inactive)'),
  ('C[N+]12C=CC=C1C(N1CCCC1)c1scc(-c3ccc(F)cc3)c12 (configuration not stated)', '92.3 µM (inactive)'),
  ('CCOC(=O)CCc1cc(=O)oc2cc(O)cc(O)c12', '62.5 µM (inactive)'),
  ('CCCCNc1nc(SC)nc2[nH]cnc12', '> 87.7 µM (inactive)'),
  ('CN(C)CCNC(=O)c1cccc2[nH]c(-c3cccnc3)nc12', '22.8 µM (inactive)'),
  ('Oc1cc(-c2ccc(F)cc2)nc2ncc(Cl)cc12', '30.3 µM (inactive)'),
  ('Cn1ncc2c(Nc3ccc(Cl)cc3)c3ccccc3nc21', '> 10 µM (inactive)'),
  ('N#CC1(Nc2ccc(-c3ccc(NC4(C#N)CCCC4)cc3)cc2)CCCC1', '> 100 µM (inactive)');

----------
tested on: SNB-19; assay: NCI tumour cell line growth inhibition, 48 h
Activity calls are given as the source filed them. Rule as the data show it: active = GI50 up to about 1.1 µM and inactive = higher. Where a SMILES comes first, the peptide text is derived from it. [ ]: non-standard residue; d: D form. The star is where a group is joined. ξ: configuration not given here. Propanoyl(3-(4-MeO-Ph)) = COc1ccc(CCC(=O)*)cc1; Thr(3ξ) = CC(O)[C@H](N)C(=O)O; dNMeL = CN[C@H](CC(C)C)C(=O)O; OBn = c1ccc(CO*)cc1; ξLac = CC(O)C(=O)O
Outcomes: yes (1) for active, no (0) for inactive

INSERT INTO results (compound, target_or_system, class_name) VALUES
  ('COc1ccc(-n2c(CCC(=O)O)nc3c2C(=O)c2ccccc2C3=O)cc1', 'SNB-19', 'no (0)'),
  ('C=C(C)C1Cc2c(c3ccccc3n(C)c2=O)O1 (stereo not given)', 'SNB-19', 'no (0)'),
  ('COc1ccc(CCC(=O)OC(C)[C@H](NC(=O)[C@@H](CC(C)C)N(C)C(=O)[C@@H]2CCCN2C(=O)C(C)O)C(=O)OCc2ccccc2)cc1 (stereo not given in full) (H-[ξLac]P[dNMeL][Thr(3ξ)](Propanoyl(3-(4-MeO-Ph)))-OBn)', 'SNB-19', 'no (0)'),
  ('c1ccc2c(CCNC3=NCCO3)cccc2c1', 'SNB-19', 'no (0)'),
  ('[O-][S+]1c2ccccc2N=C(c2ccc3ccccc3c2)CC1C1=CC=CCC1 (stereo not given)', 'SNB-19', 'no (0)'),
  ('C/C(=N\Nc1nc2ccccc2n1C)c1cc2ccccc2cn1', 'SNB-19', 'yes (1)'),
  ('O=c1n(-c2ccccc2)c(=O)n2n1C1C=CC2C2C(C1)C2(Cl)Cl (stereo not given)', 'SNB-19', 'no (0)'),
  ('Cc1ccccc1NC(=O)C(=O)CC(=O)C1CCOC1=O (stereo not given)', 'SNB-19', 'no (0)'),
  ('c1csc(-c2cc(-c3ccsc3)c(-c3cccs3)s2)c1', 'SNB-19', 'no (0)'),
  ('CCOc1ccc(/N=C/C=C(\Cl)c2ccc3ccccc3c2)cc1', 'SNB-19', 'no (0)');

----------
test system: PC-3; assay: NCI tumour cell line growth inhibition, 48 h
Activity calls are given as the source filed them. Cut-off read from the data, not from the text of the source: active = GI50 up to about 1.1 µM and inactive = higher.
Outcomes: active, inactive

INSERT INTO assay_data (compound, class_name) VALUES
  ('C/C=C\C1OC1(C)c1cc(=O)c2c(C)cc3c(c2o1)C(=O)c1c(O)c(C2CC(C)(N(C)C)C(OC(C)=O)C(C)O2)cc(C2CC(N(C)C)C(O)C(C)O2)c1C3=O (centres undefined)', 'active'),
  ('CCOC(=O)/C=C/[C@H](O[Si](c1ccccc1)(c1ccccc1)c1ccccc1)C(C)(C)C', 'inactive'),
  ('O=[N+]([O-])c1c(O)c2nonc2c2nn(-c3ccccc3)nc12', 'inactive'),
  ('CC(=O)OCC1OC(O/C=C(\CN=[N+]=[N-])C(C)=O)C(OC(C)=O)C(OC(C)=O)C1OC(C)=O (centres undefined)', 'inactive'),
  ('c1csc(-c2cc(-c3ccsc3)c(-c3cccs3)s2)c1', 'inactive'),
  ('C[N+]1([O-])[C@H]2CC(OC(=O)[C@H](CO)c3ccccc3)C[C@H]1[C@H]1O[C@H]12 (some centres undefined)', 'inactive'),
  ('Nc1n[nH]c(Nc2ccc(Cl)cc2)c1P(=O)(c1ccccc1)c1ccccc1', 'inactive'),
  ('COC(=O)c1ccccc1/C=C1\Cc2ccc3ccccc3c2C1C (centres undefined)', 'inactive'),
  ('CN(C)CCNC(=O)c1cc([N+](=O)[O-])cn1C', 'inactive');

----------
test system: SK-MEL-5; assay: NCI tumour cell line growth inhibition, 48 h
Counter-ions that a name gives are not always drawn. Calls of active or inactive are those of the source. Cut-off read from the data, not from the text of the source: active = GI50 up to about 1.1 µM and inactive = higher.
Outcomes: 1 (yes) = active, 0 (no) = inactive

INSERT INTO results (compound, class_name) VALUES
  ('CCOc1ccc(/N=C/C=C(\Cl)c2ccc3ccccc3c2)cc1', '0 (no)'),
  ('COc1ccc(Cn2nc(OCc3ccccc3)c3cc([N+](=O)[O-])ccc32)cc1', '0 (no)'),
  ('COc1cc2c(cc1OCCCN1C(=O)c3cccc4cccc(c34)C1=O)N=C[C@@H]1CCCN1C2=O', '0 (no)'),
  ('ClC1=NSSC1(Cl)Cl', '0 (no)'),
  ('CCOC(=O)C(Cc1ccc(N(CCCl)CCCl)cc1)NC(=O)CCCN1C(=O)CN=C(c2ccccc2)c2cc(Cl)ccc21 (stereo not given)', '0 (no)'),
  ('CS(=O)(=O)OCC1CCCCCCCCCCC12SCCCS2 (stereo not given)', '0 (no)'),
  ('O=[N+]([O-])c1ccc(/C=C/c2cc(-c3ccccc3)nc3ccc4ccccc4c23)cc1', '0 (no)'),
  ('CC1(C)O[C@@H](CCl)C[C@H](C#N)O1', '0 (no)'),
  ('CN(C)c1ccc(/C=C/c2cc(-c3ccccc3)[n+](C)n2-c2ccccc2)cc1', '1 (yes)'),
  ('C/C(=N\Nc1nc2ccccc2n1C)c1cc2ccccc2cn1', '1 (yes)'),
  ('C/C(=N\NC1=NCCN1)c1cn(C2=NCCN2)nc1C', '0 (no)'),
  ('O=C(Oc1c(Cl)cc(C2(c3cc(Cl)c(OC(=O)c4ccccc4)c(Cl)c3)CCCCC2)cc1Cl)c1ccccc1', '0 (no)'),
  ('CCCCCCCCCCCCSC(=S)c1c(C)[nH]n(-c2ccccc2)c1=O', '0 (no)'),
  ('COc1ccc2c(=O)c(C)c(-c3ccccc3)oc2c1CN(C)C [DIMEFLINE HYDROCHLORIDE]', '0 (no)'),
  ('CCc1c(C)[nH]c2c1/C(=N/N=C1\CCCc3[nH]c(C)c(CC)c31)CCC2', '0 (no)'),
  ('COC(=O)C1(Cc2ccccc2)Cc2ccccc2C1', '0 (no)'),
  ('CC(C)(C)/N=C\N(C=C(c1ccccc1)c1ccccc1)C1CCCCC1', '0 (no)'),
  ('O=C(CC1C(=O)Nc2ccccc2S1(=O)=O)Nc1cc(Cl)ccc1Cl (stereo not given)', '0 (no)'),
  ('CCCC[C@H]1C(=O)O[C@H](C)[C@H](NC(=O)c2cccc(NC=O)c2O)C(=O)O[C@@H](C)[C@@H]1OC(=O)CC(C)C [ANTIMYCIN A3]', '1 (yes)'),
  ('CC(C)(C)c1ccc(-c2nnc(-c3cc(C#N)cc(-c4nnc(-c5ccc(C(C)(C)C)cc5)o4)c3)o2)cc1', '0 (no)');

----------
system: NCI/ADR-RES; assay: NCI tumour cell line growth inhibition, 48 h
Activity calls are given as the source filed them. Rule as the data show it: active = GI50 up to about 1.1 µM and inactive = higher.
Outcomes: active, inactive

INSERT INTO assay_data (molecule, class_name) VALUES
  ('COc1ccc2cc(CN3CCC(C4CCNCC4)CC3)ccc2c1', 'inactive'),
  ('Cn1c(=S)[nH]c(N)c(Cc2ccccc2)c1=O', 'inactive'),
  ('CC(=O)c1nc2ccccc2n1C(C)C(=O)c1ccccc1 (stereo unspecified)', 'inactive'),
  ('C=C(C)C(=O)/N=C(\N)NC#N', 'inactive'),
  ('O=S(=O)(c1cnccc1N1CCN(CCO)CC1)N1CCCC1', 'inactive'),
  ('Cc1ccc(C2(N3CCCC3)OC(C)(C)c3cccc4cccc2c34)cc1 (stereo unspecified)', 'inactive'),
  ('CN(C)CCCNc1ccc2c(=O)n(CCN(C)C)c(=O)n3c4ccccc4c(=O)c1c23', 'active'),
  ('COc1ccc(Cn2nc(OCc3ccccc3)c3cc([N+](=O)[O-])ccc32)cc1', 'inactive'),
  ('c1ccc2c(CCNC3=NCCO3)cccc2c1', 'inactive'),
  ('CC(O)c1cc2c(s1)C(=O)c1ccsc1C2=O (stereo unspecified)', 'active'),
  ('COc1ccc(OC)c(-c2nc3n(c2/C=C2/C(=O)Nc4ccccc42)CCS3)c1', 'inactive');
